experiment: in vitro; details: human, primary mammary epithelial cells (HMEC)
reported.property: IC50 at 48 h

Name the recorded IC50 at 48 h for CC(=O)O[C@H]1C(=O)[C@@]2(C)[C@H]([C@H](OC(=O)c3ccccc3)[C@]3(O)C[C@H](OC(=O)[C@H](O)[C@@H](NC(=O)c4ccccc4)c4ccccc4)C(C)=C1C3(C)C)[C@]1(OC(C)=O)CO[C@@H]1C[C@@H]2O . 25 to 30 µg/mL
